Task for the reader: assign each of the following compounds its reported refractive index.
- protocol-details: refractive index (Na D-line) (dimensionless)
- applied-conditions: 293.15 K; 101.33 kPa; Liquid; Standard Abbe refractometry
± gives the expanded uncertainty stated by the source.

Recorded results for 5 compounds are shown here.
Cc1cccc(O)c1    1.5414 ± 0.0007
Cc1ccc(C)cc1    1.4858 ± 0.0007
Cc1ccccc1O    1.5468 ± 0.0007
Cc1cccc(C)c1    1.4972 ± 0.0007
CN(C)C=O [dimethylformamide]    1.4305 ± 0.0007

For the compound Cc1ccccc1C , report refractive index.
1.5055 ± 0.0007

====

- applied-conditions: 293.15 K; 101.33 kPa; Liquid
Hi! Just check whether mass density is below 900 kg/m3. Below gives true, equal or above gives false.

Is the reported mass density for Cc1cccc(O)c1 [3-methylphenol] strictly below 900 kg/m3?
false

====

- applied-conditions: 293.15 K; 101.33 kPa; Liquid
measurement-name: mass density (kg/m3)
Numbers only, in kg/m3.

CN(C)C=O [dimethylformamide]    948.7

Record mass density for all entries; do not skip any.
1. Cc1ccccc1C
2. Cc1ccc(C)cc1
3. Cc1ccccc1O
4. Cc1cccc(C)c1

1. 880.1
2. 861
3. 1046
4. 864.4
